Target: T1, human TL1A extracellular domain with N-terminal HIS and FLAG tag (human) (UniProt O95150)
T1 sequence: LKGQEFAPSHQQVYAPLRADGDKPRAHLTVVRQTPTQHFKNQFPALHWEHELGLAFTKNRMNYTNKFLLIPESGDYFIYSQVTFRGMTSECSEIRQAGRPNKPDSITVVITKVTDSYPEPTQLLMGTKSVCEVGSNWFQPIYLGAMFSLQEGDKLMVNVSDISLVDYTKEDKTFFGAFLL
Assay: cell-based or functional assay
Quantity: Antibody IC50, TL1A induced caspase potency assay in TF-1 cells

binder="320-202 (antibody, human IgG1, name in Kabat numbering, V domains shown, human IgG1, lambda) VH: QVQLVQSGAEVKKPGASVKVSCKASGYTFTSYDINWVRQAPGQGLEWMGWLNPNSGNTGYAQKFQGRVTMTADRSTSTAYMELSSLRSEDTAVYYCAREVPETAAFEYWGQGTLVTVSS VL: QSVLTQPPSVSGAPGQRVTISCTQSSSDIGAGLGVHWYQQLPGTAPKLLIEGYYNRPSGVPDRFSGSKSGTSASLTITGLLPEDEGDYYCQSYDGTLSALFGGGTKLTVLG" reading="0.01 µg/mL"
binder="320-186 (antibody, human IgG1, name in Kabat numbering, V domains shown, human IgG1, lambda) VH: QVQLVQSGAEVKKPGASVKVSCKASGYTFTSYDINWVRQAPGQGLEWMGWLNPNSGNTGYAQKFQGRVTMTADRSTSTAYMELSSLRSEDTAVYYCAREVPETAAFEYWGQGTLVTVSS VL: QSVLTQPPSVSGAPGQRVTISCTSSSSDIGAGLGVHWYQQLPGTAPKLLIEGYYNRPSGVPDRFSGSKSGTSASLTITGLQPEDEGDYYCQSYDGTLSALFGGGTKLTVLG" reading="0.03 µg/mL"
binder="320-229 (antibody, human IgG1, name in Kabat numbering, V domains shown, human IgG1, lambda) VH: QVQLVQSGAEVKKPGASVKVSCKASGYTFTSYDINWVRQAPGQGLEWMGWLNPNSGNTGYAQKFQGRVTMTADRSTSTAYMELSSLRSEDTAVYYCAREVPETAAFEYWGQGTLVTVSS VL: QSVLTQPPSVSGAPGQRVTISCTSSSKDIGAGLGVHWYQQLPGTAPKLLIEGYYNRPSGVPDRFSGSKSGTSASLTITGLLPEDEGDYYCQSYDGTLSALFGGGTKLTVLG" reading="0.04 µg/mL"
binder="320-191 (antibody, human IgG1, name in Kabat numbering, V domains shown, human IgG1, lambda) VH: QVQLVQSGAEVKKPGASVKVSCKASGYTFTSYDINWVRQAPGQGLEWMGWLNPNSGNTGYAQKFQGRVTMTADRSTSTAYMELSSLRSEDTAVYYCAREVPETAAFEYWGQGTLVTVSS VL: QSVLTQPPSVSGAPGQRVTISCTSSSSDIGAGLGVHWYQQLPGTAPKLLIEGYYNRPSGVPDRFSGSKSGTSASLTITGLYPEDEGDYYCQSYDGTLSALFGGGTKLTVLG" reading="0.02 µg/mL"
binder="320-477 (antibody, human IgG1, name in Kabat numbering, V domains shown, human IgG1, lambda) VH: QVQLVQSGAEVKKPGASVKVSCKASGYTFTHYDINWVRQAPGQGLEWMGWLNPNSGNTGYAQKFQGRVTMTADRSTSTAYMELSSLRSEDTAVYYCAREVPETAAFEYWGQGTLVTVSS VL: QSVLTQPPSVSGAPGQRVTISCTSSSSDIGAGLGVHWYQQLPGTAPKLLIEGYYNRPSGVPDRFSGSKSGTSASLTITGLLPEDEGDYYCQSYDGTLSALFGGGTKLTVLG" reading="0.03 µg/mL"

Each recorded value in this set is attributed to patent US20170081400A1.
